- assay-system: recombinant cynomolgus monkey CD3ε/δ heterodimer (cynomolgus monkey) (UniProt Q95LI5)
- Sequence (Q95LI5 22-117, stated change not applied, chain 1 of 2): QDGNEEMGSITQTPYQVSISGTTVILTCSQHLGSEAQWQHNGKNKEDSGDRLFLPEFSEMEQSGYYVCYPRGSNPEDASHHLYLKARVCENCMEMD
- Sequence (Q95LI8 22-105, stated change not applied, chain 2 of 2, further chain): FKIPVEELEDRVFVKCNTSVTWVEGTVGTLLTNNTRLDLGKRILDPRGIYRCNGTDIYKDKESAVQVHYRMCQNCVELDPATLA
- experimental-details: ELISA, coated CD3ε/δ
Listed next: entries and their corresponding Absorbance (450 nm).
Just the number, please, no unit after it.

B16 (antibody, human IgG1, lambda, L234A L235A, V domains shown) VH: EVQLVESGGGLVQPGGSLKLSCAASGFTFNTYAMNWVRQASGKGLEWVGRIRSKYNNYATYYADSVKDRFTISRDDSKNTLYLQMNSLKTEDTAVYYCVRHGNFGNSYVSWFAYWGQGTLVTVSS VL: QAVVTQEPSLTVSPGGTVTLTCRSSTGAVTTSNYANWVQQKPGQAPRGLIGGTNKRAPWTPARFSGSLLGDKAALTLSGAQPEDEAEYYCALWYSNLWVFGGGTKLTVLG
2.93
G13 (antibody, human IgG1, lambda, L234A L235A, V domains shown) VH: EVQLVESGGGLVQPGGSLKLSCAASGFTFNTYAMNWVRQASGKGLEWVARIRSKYNNYATYYADSVKDRFTISRDDSQSTAYLQMNSLKTEDTAVYYCVRHGNFGNSYVSWFAYWGQGTLVTVSS VL: QAVVTQEPSLTVSPGGTVTLTCRSSTGAVTTSNYANWVQQKPGQAPRGLIYGTNKRAPWTPARFSGSLLGGKAALTLSGAQPEDEAEYYCALWYSNLWVFGGGTKLTVLG
0.242

Please turn your attention to the following entry.
# input binder: E01 (antibody, human IgG1, lambda, L234A L235A, V domains shown) VH: EVQLVESGGGLVQPGGSLKLSCAASGFTFNTYAMNWVRQASGKGLEWVARIRSKYNNYATYYADSVKDRFTISRDDSKNTAYLQMNSLKTEDTAVYYCVRHGNFGNSYVSWFAYWGQGTLVTVSS VL: QAVVTQEPSLTVSPGGTVTLTCRSSTGAVTTSNYANWFQQKPGQAPRTLIYGTNKRAPWTPARFSGSLLGGKAALTLSGAQPEDEAEYYCALWYSNLWVFGGGTKLTVLG ; wanted: its Absorbance (450 nm) 0.078
